Target: T1, OPTN(26–119) (human, UniProt Q96CV9 26-119)
T1 construct: A Se-Met labelled form was used for the 2.5 Å crystal structure with TBK1 CTD; also called OPTN NTD; not shown: Trx-His6 (pET-32M) or GST (pET-GST), N-terminal, cleaved
T1 sequence (Q96CV9 26-119): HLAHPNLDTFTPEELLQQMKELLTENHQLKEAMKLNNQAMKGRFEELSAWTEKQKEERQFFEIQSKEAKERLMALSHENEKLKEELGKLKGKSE
Experiment: ITC; 25 °C; 50 mM Tris pH 7.5, 100 mM NaCl, 1 mM EDTA, 1 mM DTT; 1 mM TBK1 fragment in the syringe, 0.1 mM OPTN or NAP1 fragment in the cell; one-site binding model
Details: both partners purified

Binder	Kd
TBK1 CTD (residues 677–729) (domain or fragment, human, UniProt Q9UHD2 677-729, looked up, For the crystal with NAP1 TBD it was made as a NAP1(215–254)-TEV site-TBK1 CTD fusion that was cut with 3C and TEV; not shown: Trx-His6 (pET-32M) or GST (pET-GST), N-terminal, cleaved) YPSSNTLVEMTLGMKKLKEEMEGVVKELAENNHILERFGSLTMDGGLRNVDCL	~2500 nM
